Assay: Acute toxicity, intraperitoneal (Test Example 3)
Settings: mouse, in vivo, ip, female mice, in dimethyl sulfoxide, observed for 7 days
Would you kindly list LD50 at 168 h for each of these compounds?
API: value field is a number in mg/kg; no unit string.

For reference, reported LD50 at 168 h for CCCCCCCNc1ncnc2c1ncn2[C@@H]1O[C@@H]2COP(=O)(O)O[C@H]2[C@H]1O stands at 174

For reference, reported LD50 at 168 h for O=P1(O)OC[C@H]2O[C@@H](n3cnc4c(NCc5ccccc5)ncnc43)[C@H](O)[C@@H]2O1 stands at 383

For reference, reported LD50 at 168 h for CCCCNc1ncnc2c1ncn2[C@@H]1O[C@@H]2COP(=O)(O)O[C@H]2[C@H]1O stands at 350

For reference, reported LD50 at 168 h for O=P1(O)OC[C@H]2O[C@@H](n3cnc4c(NCc5ccco5)ncnc43)[C@H](O)[C@@H]2O1 stands at 483

For reference, reported LD50 at 168 h for CCCCCCCCCNc1ncnc2c1ncn2[C@@H]1O[C@@H]2COP(=O)(O)O[C@H]2[C@H]1O stands at 150
